measured target: GST-tagged MDMX (Homo sapiens)
result type: log10 of IC50 (log10 of the value in nM)
Log10 applied to IC50; unit prior to transform: nM.

// known answers, use as guide
CCCOc1cc(Cl)c(S(=O)(=O)N2CCCC2)cc1C1=N[C@@](C)(c2ccc(Cl)cc2)[C@@](C)(c2ccc(Cl)cc2)N1C(=O)N1CCN(CCCS(C)(=O)=O)CC1 :: 3.60
CC(C)Oc1cc(Cl)c(S(=O)(=O)N2C[C@H]3CC[C@@H](C2)O3)cc1C1=N[C@@](C)(c2ccc(Cl)cc2)[C@@](C)(c2ccc(Cl)cc2)N1C(=O)N1CCN(CCCS(C)(=O)=O)CC1 :: 2.29
CCOc1cc(Cl)c(S(C)(=O)=O)cc1C1=N[C@@](C)(c2ccc(Cl)cc2)[C@@](C)(c2ccc(Cl)cc2)N1C(=O)N1CCC(CS(C)(=O)=O)CC1 :: 3.23

Could you now consider this next compound?
Qu. Report log10 of IC50 for CCOc1cc(Cl)c(S(C)(=O)=O)cc1C1=N[C@@](C)(c2ccc(Cl)cc2)[C@@](C)(c2ccc(Cl)cc2)N1C(=O)N1CCC(NC(=O)N2CCCC2)CC1
Ans. 3.53

###

measured target: recombinant GST-tagged MDM2 (Homo sapiens, UniProt Q00987)
Sequence (Q00987 whole entry): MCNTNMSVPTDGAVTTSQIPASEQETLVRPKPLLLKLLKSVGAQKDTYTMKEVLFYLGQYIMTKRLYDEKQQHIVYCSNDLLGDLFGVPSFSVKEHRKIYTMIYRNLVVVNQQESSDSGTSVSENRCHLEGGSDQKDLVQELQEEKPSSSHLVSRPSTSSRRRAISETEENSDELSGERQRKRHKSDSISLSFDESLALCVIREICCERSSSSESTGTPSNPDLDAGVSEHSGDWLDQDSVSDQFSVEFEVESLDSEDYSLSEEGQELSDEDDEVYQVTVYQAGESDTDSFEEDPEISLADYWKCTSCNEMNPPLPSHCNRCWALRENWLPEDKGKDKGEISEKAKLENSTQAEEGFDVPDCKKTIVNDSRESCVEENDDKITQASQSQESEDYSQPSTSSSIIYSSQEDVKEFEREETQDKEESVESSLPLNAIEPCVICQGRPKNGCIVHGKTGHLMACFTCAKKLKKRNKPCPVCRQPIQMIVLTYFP
assay notes: HTRF assay of interaction between p53 peptide and GST-tagged MDM2
experimental setup: inhibition of GST-MDM2 (160 ng/ml) binding to biotinylated p53-peptide
result type: IC50
Write the numeric value and append its unit.

// known answers, use as guide
CCOc1cc(Cl)c(S(C)(=O)=O)cc1C1=N[C@@](C)(c2ccc(Cl)cc2)[C@@](C)(c2ccc(Cl)cc2)N1C(=O)N1CCN(CCC(N)=O)CC1 :: 8.8 nM
CCOc1cc(Cl)c(S(=O)(=O)NC(C)(C)C)cc1C1=N[C@@](C)(c2ccc(Cl)cc2)[C@@](C)(c2ccc(Cl)cc2)N1C(=O)N1CCN(CCOCCO)CC1 :: 12.2 nM
CCOc1cc(Cl)c(S(=O)(=O)NC(C)(C)C)cc1C1=N[C@@](C)(c2ccc(Cl)cc2)[C@@](C)(c2ccc(Cl)cc2)N1C(=O)N1CCN(C2CCS(=O)(=O)C2)CC1 (some centres unmarked) :: 7 nM

Qu. Report IC50 for CCOc1cc(Cl)c(S(C)(=O)=O)cc1C1=N[C@@](C)(c2ccc(Cl)cc2)[C@@](C)(c2ccc(Cl)cc2)N1C(=O)N1CCN(CC[C@H](O)CO)C(=O)C1
Ans. 5.4 nM

Qu. Report IC50 for CCOc1cc(Cl)c(S(C)(=O)=O)cc1C1=N[C@@](C)(c2ccc(Cl)cc2)[C@@](C)(c2ccc(Cl)cc2)N1C(=O)N1CCN(S(C)(=O)=O)CC1
Ans. 6.3 nM

Qu. Report IC50 for CCOCCN(CCOCC)C(=O)CC1CCN(C(=O)N2C(c3cc(S(C)(=O)=O)c(Cl)cc3OCC)=N[C@@](C)(c3ccc(Cl)cc3)[C@@]2(C)c2ccc(Cl)cc2)CC1
Ans. 4.4 nM

Qu. Report IC50 for CCOc1cc(Cl)c(S(=O)(=O)NC(C)(C)C)cc1C1=N[C@@](C)(c2ccc(Cl)cc2)[C@@](C)(c2ccc(Cl)cc2)N1C(=O)N1CCCC(O)C1 (some centres unmarked)
Ans. 16.1 nM

Qu. Report IC50 for CC(C)Oc1cc(Cl)c(S(=O)(=O)N2CCCC2)cc1C1=N[C@@](C)(c2ccc(Cl)cc2)[C@@](C)(c2ccc(Cl)cc2)N1C(=O)N1CCN(CCCS(C)(=O)=O)CC1
Ans. 4.6 nM

Qu. Report IC50 for CCOc1cc(Cl)c(S(C)(=O)=O)cc1C1=N[C@@](C)(c2ccc(Cl)cc2)[C@@](C)(c2ccc(Cl)cc2)N1C(=O)N1CCC(N(C)CCCN(C)C)C1 (some centres unmarked)
Ans. 6.1 nM

Qu. Report IC50 for CC(C)Oc1cc(Cl)c(S(N)(=O)=O)cc1C1=N[C@@](C)(c2ccc(Cl)cc2)[C@@](C)(c2ccc(Cl)cc2)N1C(=O)N1CCN(CCCS(C)(=O)=O)CC1
Ans. 7.7 nM

Qu. Report IC50 for CCOc1cc(Cl)c(S(=O)(=O)NC(C)(C)C)cc1C1=N[C@@](C)(c2ccc(Cl)cc2)[C@@](C)(c2ccc(Cl)cc2)N1C(=O)N1CCN(CCC(N)=O)CC1
Ans. 9.3 nM

Qu. Report IC50 for CCOc1cc(Cl)c(S(C)(=O)=O)cc1C1=N[C@@](C)(c2ccc(Cl)cc2)[C@@](C)(c2ccc(Cl)cc2)N1C(=O)N1CCN(CCS(C)(=O)=O)CC1
Ans. 6 nM

Qu. Report IC50 for CCOc1cc(Cl)c(S(C)(=O)=O)cc1C1=N[C@@](C)(c2ccc(Cl)cc2)[C@@](C)(c2ccc(Cl)cc2)N1C(=O)N1CCN(CC(=O)NC)CC1
Ans. 5 nM

Qu. Report IC50 for CC(C)Oc1cc(Cl)c(S(=O)(=O)N2C[C@H]3CC[C@@H](C2)O3)cc1C1=N[C@@](C)(c2ccc(Cl)cc2)[C@@](C)(c2ccc(Cl)cc2)N1C(=O)N1CCN(CCCS(C)(=O)=O)CC1
Ans. 4.8 nM

Qu. Report IC50 for CCOc1cc(Cl)c(S(C)(=O)=O)cc1C1=N[C@@](C)(c2ccc(Cl)cc2)[C@@](C)(c2ccc(Cl)cc2)N1C(=O)N1CCC(NC(N)=O)CC1
Ans. 5.2 nM

Qu. Report IC50 for CCCOc1cc(Cl)c(S(=O)(=O)N2CCCC2)cc1C1=N[C@@](C)(c2ccc(Cl)cc2)[C@@](C)(c2ccc(Cl)cc2)N1C(=O)N1CCN(CCCS(C)(=O)=O)CC1
Ans. 18.1 nM

Qu. Report IC50 for CCOc1cc(Cl)c(S(=O)(=O)NC(C)(C)C)cc1C1=N[C@@](C)(c2ccc(Cl)cc2)[C@@](C)(c2ccc(Cl)cc2)N1C(=O)N1CCN(CC(=O)N2CCN(C)CC2)CC1
Ans. 6.6 nM

Qu. Report IC50 for CC(C)Oc1cc(Cl)c(S(=O)(=O)NC(C)(C)C)cc1C1=N[C@@](C)(c2ccc(Cl)cc2)[C@@](C)(c2ccc(Cl)cc2)N1C(=O)N1CCN(CCCS(C)(=O)=O)CC1
Ans. 4.4 nM

Qu. Report IC50 for CCOc1cc(Cl)c(S(C)(=O)=O)cc1C1=N[C@@](C)(c2ccc(Cl)cc2)[C@@](C)(c2ccc(Cl)cc2)N1C(=O)N1CCN(CC(N)=O)CC1
Ans. 6.6 nM

Qu. Report IC50 for CCOc1cc(Cl)c(S(C)(=O)=O)cc1C1=N[C@@](C)(c2ccc(Cl)cc2)[C@@](C)(c2ccc(Cl)cc2)N1C(=O)N1CCN(CCCS(=O)(=O)CC)CC1
Ans. 4.7 nM

###

measured target: GST-tagged MDMX (Homo sapiens, UniProt O15151)
Sequence (O15151 whole entry): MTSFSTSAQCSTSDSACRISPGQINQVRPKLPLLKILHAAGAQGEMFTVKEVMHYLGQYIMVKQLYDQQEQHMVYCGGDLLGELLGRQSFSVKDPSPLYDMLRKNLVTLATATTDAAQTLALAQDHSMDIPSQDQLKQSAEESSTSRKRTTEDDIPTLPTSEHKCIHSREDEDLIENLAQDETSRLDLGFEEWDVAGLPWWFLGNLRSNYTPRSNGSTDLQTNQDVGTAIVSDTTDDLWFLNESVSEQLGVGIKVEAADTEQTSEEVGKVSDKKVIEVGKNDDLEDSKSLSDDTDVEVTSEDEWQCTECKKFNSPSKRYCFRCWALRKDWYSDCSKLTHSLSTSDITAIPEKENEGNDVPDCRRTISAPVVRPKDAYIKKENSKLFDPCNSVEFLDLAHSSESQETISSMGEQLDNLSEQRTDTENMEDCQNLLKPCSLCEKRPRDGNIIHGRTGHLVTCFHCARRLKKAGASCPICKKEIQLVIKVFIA
assay notes: HTRF binding assay of GST-tagged MDMX to p53 peptide
Reported pIC50 by item:
Keep it numeric: pIC50 is minus log10 of the concentration in mol/L.

CCOc1cc(Cl)c(S(=O)(=O)NC(C)(C)C)cc1C1=N[C@@](C)(c2ccc(Cl)cc2)[C@@](C)(c2ccc(Cl)cc2)N1C(=O)N1CCN(CC(=O)NCC2CCCO2)CC1 (mixture of isomers) :: 5.87
CCOc1cc(Cl)c(S(C)(=O)=O)cc1C1=N[C@@](C)(c2ccc(Cl)cc2)[C@@](C)(c2ccc(Cl)cc2)N1C(=O)N1CCC(N(C)CCCN(C)C)C1 (some centres unmarked) :: 5.41
CCOc1cc(Cl)c(S(=O)(=O)NC(C)(C)C)cc1C1=N[C@@](C)(c2ccc(Cl)cc2)[C@@](C)(c2ccc(Cl)cc2)N1C(=O)N1CCN(C2CCS(=O)(=O)C2)CC1 (some centres unmarked) :: 6.10

Qu. Report pIC50 for CCOc1cc(Cl)c(S(C)(=O)=O)cc1C1=N[C@@](C)(c2ccc(Cl)cc2)[C@@](C)(c2ccc(Cl)cc2)N1C(=O)N1CCC(NC(=O)NC2CCS(=O)(=O)C2)CC1 (some centres unmarked)
Ans. 5.87

Qu. Report pIC50 for CCOc1cc(Cl)c(S(C)(=O)=O)cc1C1=N[C@@](C)(c2ccc(Cl)cc2)[C@@](C)(c2ccc(Cl)cc2)N1C(=O)N1CCC(CCCS(C)(=O)=O)CC1
Ans. 5.87

###

Reported IC50 by item:
measured target: GST-tagged MDMX (Homo sapiens, UniProt O15151)
assay notes: HTRF binding assay of GST-tagged MDMX to p53 peptide
Give the quantity in nM, number only.

CCOc1cc(Cl)c(S(=O)(=O)NC(C)(C)C)cc1C1=N[C@@](C)(c2ccc(Cl)cc2)[C@@](C)(c2ccc(Cl)cc2)N1C(=O)N1CCN(C(=O)Cn2cnnn2)CC1 :: 3760

Qu. Report IC50 for CCC(C)Oc1cc(Cl)c(S(C)(=O)=O)cc1C1=N[C@@](C)(c2ccc(Cl)cc2)[C@@](C)(c2ccc(Cl)cc2)N1C(=O)N1CCN(CCCS(C)(=O)=O)CC1 (some centres unmarked)
Ans. 1530

Qu. Report IC50 for CCOc1cc(Cl)c(S(=O)(=O)CC)cc1C1=N[C@@](C)(c2ccc(Cl)cc2)[C@@](C)(c2ccc(Cl)cc2)N1C(=O)N1CCN(CCCS(C)(=O)=O)CC1
Ans. 989
